Please go through the items and note down their Inf. H: Scedosporium apiospermum IHEM3817, pIC50.
# Tested on: Scedosporium apiospermum
# Assay comment: Antifungal activity in vitro, resazurin growth inhibition: Scedosporium apiospermum (IHEM3817)
# Type: cell-based

Briefly, Inf. H: Scedosporium apiospermum IHEM3817, pIC50 measured for `COc1cccc2cc(C3=NCc4c(Cl)cccc4-n4cccc43)oc12` : <4.19

Briefly, Inf. H: Scedosporium apiospermum IHEM3817, pIC50 measured for `Clc1cccc2c1CN=C(c1cc3ccccc3o1)c1cccn1-2` : <4.19

Briefly, Inf. H: Scedosporium apiospermum IHEM3817, pIC50 measured for Cc1cccc2c1CNC(c1cc3cc(Cl)ccc3o1)c1cccn1-2.Cl (racemic) : <4.19

---

# Tested on: Sporothrix schenkii
# Assay comment: Antifungal activity in vitro, resazurin growth inhibition: Sporothrix schenkii (B62482)
# Format: cell-based
# Description: The standard susceptibility screen is performed in 96-well plates (U-bottom, Greiner Bio-One). Serial dilutions (2-fold or 4-fold) of 20 mM compound stock solutions are made in 100% DMSO, followed by an intermediate dilution step in water. These serial dilutions (10 μl) are then spotted onto test-plates that can be stored in the dark at 4° C. for a maximum period of 2 weeks. An adequate broad dose-range is included with 64 μM as the highest in-test concentration. […]
Reported property: Inf. A: Sporothrix schenkii B62482, pIC50

Observed Inf. A: Sporothrix schenkii B62482, pIC50, Sporothrix schenkii, Cl.FC(F)(F)c1ccc(C2NCc3c(Cl)cc(Cl)cc3-n3cccc32)cn1 (racemic) : <4.19

Observed Inf. A: Sporothrix schenkii B62482, pIC50, Sporothrix schenkii, Cc1nc2ccc(C3NCc4c(Cl)cccc4-n4cccc43)cc2o1.Cl (racemic) : <4.19

Observed Inf. A: Sporothrix schenkii B62482, pIC50, Sporothrix schenkii, `CC(=O)c1ccc(C2=NCc3c(Cl)cccc3-n3cccc32)cn1` : <4.19

Observed Inf. A: Sporothrix schenkii B62482, pIC50, Sporothrix schenkii, `Cc1cccc2oc(C3=NCc4ccc(Cl)cc4-n4cccc43)cc12` : <4.19

Observed Inf. A: Sporothrix schenkii B62482, pIC50, Sporothrix schenkii, `Cc1cc(C2=NCc3ccccc3-n3cccc32)ccn1` : <4.49

Observed Inf. A: Sporothrix schenkii B62482, pIC50, Sporothrix schenkii, `Clc1cccc2c1CN=C(c1ccncc1)c1cccn1-2` : <4

Observed Inf. A: Sporothrix schenkii B62482, pIC50, Sporothrix schenkii, `Cc1nc(Cl)cc2cc(C3=NCc4c(Cl)cccc4-n4cccc43)oc12` : <4.49

Observed Inf. A: Sporothrix schenkii B62482, pIC50, Sporothrix schenkii, `Clc1cccc2c1CN=C(c1ccc3scnc3c1)c1cccn1-2` : <4.19

Observed Inf. A: Sporothrix schenkii B62482, pIC50, Sporothrix schenkii, `Clc1cccc2c1CN=C(c1ccc3ncsc3c1)c1cccn1-2` : <4.19

Observed Inf. A: Sporothrix schenkii B62482, pIC50, Sporothrix schenkii, Cl.FC(F)(F)c1ccc(C2NCc3c(Cl)cccc3-n3cccc32)nn1 (racemic) : <4.19

Observed Inf. A: Sporothrix schenkii B62482, pIC50, Sporothrix schenkii, `CCc1cnc(C2=NCc3c(Cl)cccc3-n3cccc32)s1` : <4.19

Observed Inf. A: Sporothrix schenkii B62482, pIC50, Sporothrix schenkii, COc1cccc2cc(C3NCc4c(Cl)cc(Cl)cc4-n4cccc43)oc12.Cl (racemic) : <4.19

Observed Inf. A: Sporothrix schenkii B62482, pIC50, Sporothrix schenkii, `Clc1cc2oc(C3=NCc4c(Cl)cccc4-n4cccc43)cc2cn1` : <4.49

Observed Inf. A: Sporothrix schenkii B62482, pIC50, Sporothrix schenkii, `Cc1ccc2cc(C3=NCc4c(F)cccc4-n4cccc43)ccc2n1` : <4.19

Observed Inf. A: Sporothrix schenkii B62482, pIC50, Sporothrix schenkii, Cc1cccc2c1-n1cccc1C(c1cc3ccccc3o1)NC2.Cl (racemic) : <4.19

Observed Inf. A: Sporothrix schenkii B62482, pIC50, Sporothrix schenkii, `Cn1nc2ccc(C3=NCc4c(Cl)cccc4-n4cccc43)cc2n1` : <4.49

Observed Inf. A: Sporothrix schenkii B62482, pIC50, Sporothrix schenkii, `Clc1cc(C2=NCc3c(Cl)cccc3-n3cccc32)cnc1Cl` : <4.19

Observed Inf. A: Sporothrix schenkii B62482, pIC50, Sporothrix schenkii, Cl.Clc1ccc2oc(C3NCc4c(Cl)cccc4-n4cccc43)cc2c1 (racemic) : <4.19

Observed Inf. A: Sporothrix schenkii B62482, pIC50, Sporothrix schenkii, `Clc1cccc2c1CN=C(c1ccc3c(Cl)coc3c1)c1cccn1-2` : <4.19

Observed Inf. A: Sporothrix schenkii B62482, pIC50, Sporothrix schenkii, Cl.FC(F)(F)c1ncc(C2NCc3c(Cl)cccc3-n3cccc32)cn1 (racemic) : <4.19

Observed Inf. A: Sporothrix schenkii B62482, pIC50, Sporothrix schenkii, `CC(=O)c1ccc(C2=NCc3c(F)cccc3-n3cccc32)cn1` : <4.19
